Data origin: ChEMBL document CHEMBL3817836

experiment: Toxicity against human MCF7 cells assessed as reduction in cell viability measured after 48 hrs by MTT assay; format: cell-based
Quick list: IC50 at 48 h per entry.
TEST_READOUT: IC50 at 48 h (µM)

O=C1c2cccc3c2c(cc2c4ccccc4sc32)C(=O)N1CCOCCO 18.8
O=c1c2ccc3sc4ccccc4c4ccc(c(=O)n1CCOCCO)c2c34 18.2
